- TARGET_OR_SYSTEM: Beta-2 adrenergic receptor (Homo sapiens)
- Sequence (P07550 whole entry): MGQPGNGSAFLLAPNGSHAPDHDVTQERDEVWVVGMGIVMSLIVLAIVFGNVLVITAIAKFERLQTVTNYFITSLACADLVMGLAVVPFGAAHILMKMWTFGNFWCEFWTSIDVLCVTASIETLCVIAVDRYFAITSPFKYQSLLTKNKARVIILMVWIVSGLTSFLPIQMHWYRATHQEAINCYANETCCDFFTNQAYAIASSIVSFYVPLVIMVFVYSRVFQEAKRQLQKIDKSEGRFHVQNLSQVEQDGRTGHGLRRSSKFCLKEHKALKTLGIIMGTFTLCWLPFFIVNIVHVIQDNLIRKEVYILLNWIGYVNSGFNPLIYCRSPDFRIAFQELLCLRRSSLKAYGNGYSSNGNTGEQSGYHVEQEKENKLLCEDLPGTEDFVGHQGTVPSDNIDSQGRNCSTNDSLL
- TEST_PROTOCOL: Agonist activity at human beta2 adrenergic receptor expressed in cells by cAMP accumulation assay
- Type: functional, cell-based
ASSAY_ENDPOINT: EC50

Please give the measured EC50 for this molecule: NCCCCOc1ccc(Nc2ccc(CCNC[C@H](O)c3ccc(O)c4[nH]c(=O)ccc34)cc2)cc1
0.126 nM

How about CS(=O)(=O)N1CCN(CCOc2ccc(Nc3ccc(CCNC[C@H](O)c4ccc(O)c5[nH]c(=O)ccc45)cc3)cc2)CC1 ?
0.631 nM

Others:
Give the measured EC50 of O=c1ccc2c([C@@H](O)CNCCc3ccc(Nc4ccc(OCCN5CCOCC5)cc4)cc3)ccc(O)c2[nH]1 .
0.316 nM

Another: COc1ccc(Nc2ccc(CCNC[C@H](O)c3ccc(O)c4[nH]c(=O)ccc34)cc2)cc1-c1cccc(CN)c1
0.0794 nM

Moving on to the next molecule: CC(C)(N)COc1ccc(Nc2ccc(CCNC[C@H](O)c3ccc(O)c4[nH]c(=O)ccc34)cc2)cc1
0.0794 nM

Also need NCCOc1ccc(Nc2ccc(CCNC[C@H](O)c3ccc(O)c4[nH]c(=O)ccc34)cc2)cc1 , thanks.
0.1 nM

Also check NCCOCCOc1ccc(Nc2ccc(CCNC[C@H](O)c3ccc(O)c4[nH]c(=O)ccc34)cc2)cc1
0.158 nM

// repeat for CC(C)(N)COc1ccc(Nc2ccc(CCNC[C@H](O)c3ccc(O)c4[nH]c(=O)ccc34)cc2)cc1-c1ccccc1 and report
0.0631 nM
